Test: chemical genetic growth profiling, strain panel (AID 1159580);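 further: tested at 20 µM; growth read once vehicle control cultures reached saturation at 30 °C; 1 = growth at the plate median or of vehicle wells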
Settings: S. cerevisiae deletion strains, growth OD, locus YLR403W, strain SFP1, stronger effect = lower value
The campaign covered roughly 5,500 compounds. About 2,000 (36%) were called active. Another 18% or so got no clear call; they are omitted. Some of the results follow.
metric name: normalized growth
I'd appreciate a reply containing only the number, no unit.

Oc1ccc(N=Nc2ccccn2)c(O)c1 = 0.00522
Cc1ccc(N2C(=O)CSC2c2ccc(Cl)c(Cl)c2)cc1Cl (configuration not stated) = 0.95

Q) normalized growth lookup needed for COc1ccc(CC2CCC(=NOC(=O)c3c(Cl)cccc3Cl)CC2)cc1 (configuration not stated) , thanks.
A) 1.01

Q) Look up normalized growth for this molecule: O=C(CCn1c(=O)oc2ccccc21)Sc1ccc(Cl)cc1Cl
A) 0.205

Q) Please look up its normalized growth: S=C(NNc1ccccc1)Nc1cc(Cl)ccc1Cl
A) 0.936

Q) Name the reported normalized growth value associated with the molecule COc1ccc(OC)c(-c2ccn[nH]2)c1OCc1ccccc1
A) 0.883

Q) // normalized growth lookup, key: CC1C/C(=N/Nc2ccc(Br)cc2)c2cc(Cl)ccc2S1(=O)=O (configuration not stated)
A) 0.763

Q) # normalized growth lookup, item CC(C)(C)C(=O)/C(C#N)=C/c1c(Cl)cccc1Cl
A) 0.0102

Q) Which normalized growth is reported for this molecule? CS(=O)(=O)c1sc(C(=O)Sc2ccc(Cl)cc2)c2c1C=CCC2
A) 0.217

Q) Can you share its normalized growth? I mean this molecule: S=C(Nc1cc(Cl)c(Cl)cc1Cl)Nc1ccccc1Br
A) 0.754

Q) Return reported normalized growth; argument: CC1C/C(=N/Nc2ccc(Br)cc2)c2cc(Cl)ccc2S1 (configuration not stated)
A) 0.0605

Q) For CSC(=NNc1ccccc1)NC(=O)c1c(Cl)cccc1Cl , what is its reported normalized growth?
A) 0.897
